# Procedure Text: Acute toxicity, LD50 p.o.
# Condition Context: mouse, in vivo, po
Recorded Metric: LD50

Request: For the molecule Cc1ccc(C)n1Nc1ccc(N2CCOCC2)nn1 , what LD50 is on record?
Result: ~800 mg/kg
